- test system: human 5-HT2C receptor (Homo sapiens)
- Sequence (P28335 33-458): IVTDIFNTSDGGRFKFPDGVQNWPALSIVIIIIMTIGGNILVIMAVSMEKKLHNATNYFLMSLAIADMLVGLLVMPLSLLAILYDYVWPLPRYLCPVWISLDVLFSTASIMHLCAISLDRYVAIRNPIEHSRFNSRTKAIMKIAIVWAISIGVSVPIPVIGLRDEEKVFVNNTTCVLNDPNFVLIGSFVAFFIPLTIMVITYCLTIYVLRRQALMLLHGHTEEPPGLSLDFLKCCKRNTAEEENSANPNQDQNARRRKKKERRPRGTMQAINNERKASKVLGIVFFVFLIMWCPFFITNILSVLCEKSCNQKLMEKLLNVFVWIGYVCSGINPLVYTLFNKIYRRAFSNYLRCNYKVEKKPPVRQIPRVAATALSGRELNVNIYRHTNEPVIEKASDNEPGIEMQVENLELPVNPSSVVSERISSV
- protocol: 5-HT2C receptor-stimulated calcium mobilization (FLIPR) in CHO cells;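 also: Fluo-3-AM fluorescence read on FLIPR every 1 s, agonist added after 10 baseline reads, response taken as peak minus lowest raw fluorescence count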
- Assay type: cell-based
- cond: calcium mobilization, CHO cells stably expressing human 5-HT2C; read-out: 5-HT2C Function EC50
So I've got a bunch of compounds here, and I need their pEC50 values.
pEC50 here is simply -log10 of the concentration when that concentration is written in mol/L.

If you can, please state the reported pEC50 value of CNCC1Cc2cc(C(F)(F)F)cc(-c3ccc(OC)cc3OC)c2O1 (racemic) .
7.30

If you can, please state the reported pEC50 value of CNCC1Cc2cc(Cl)cc(-c3ccsc3)c2O1 (single isomer, unassigned; (+)) .
6.06

If you can, please state the reported pEC50 value of COc1cccc(-c2cc(F)cc3c2OC(CN)C3)c1OC (racemic) [Example 212] .
7.96

If you can, please state the reported pEC50 value of CNCC1Cc2cc(F)cc(-c3cc(Cl)ccc3Cl)c2O1 (racemic) [Example 449] .
8.70

If you can, please state the reported pEC50 value of CNCC1Cc2cc(Cl)cc(-c3cc(Cl)ccc3Cl)c2O1 (racemic) [Example 471] .
7.85

If you can, please state the reported pEC50 value of CNCC1Cc2cc(Cl)cc(-c3c(C)cccc3C)c2O1 (racemic) [Example 461] .
7.47
